Each entry below lists one item and its recorded TGI value.
Test system: DU-145 prostate
Experiment: NCI tumour cell line growth inhibition, 48 h
MEASURE: TGI

{"MOLECULE": "CCC(=S)N(C)O", "MEASURE": "TGI", "REPORTED_MEASUREMENT": "> 100 µM"}
{"MOLECULE": "CCOC(=O)c1sc2nc(SC)nc(Nc3ccc(OC)c(OC)c3)c2c1N", "MEASURE": "TGI", "REPORTED_MEASUREMENT": "> 100 µM"}
{"MOLECULE": "COc1cc2c(cc1OC)-c1cc3ccccc3c(=O)n1CCC2", "MEASURE": "TGI", "REPORTED_MEASUREMENT": "> 66 µM"}
{"MOLECULE": "NC1=C(c2nc(-c3cc4ccccc4oc3=O)cs2)C(c2ccco2)c2c(c3ccccc3oc2=O)O1 (centres undefined)", "MEASURE": "TGI", "REPORTED_MEASUREMENT": "> 150 µg/mL"}
{"MOLECULE": "COc1cccc(/C=N/n2c(-c3ccccc3)n[nH]c2=O)c1", "MEASURE": "TGI", "REPORTED_MEASUREMENT": "> 100 µM"}
{"MOLECULE": "Cn1cc(-c2ccc(CCOC3CCCCO3)cc2)c2c(C#N)cccc21 (centres undefined)", "MEASURE": "TGI", "REPORTED_MEASUREMENT": "> 100 µM"}
{"MOLECULE": "C=CCC1(O)c2cccc(O)c2C(=O)c2c(O)cccc21", "MEASURE": "TGI", "REPORTED_MEASUREMENT": "> 100 µM"}
{"MOLECULE": "O=C(O)/C(=C\\c1ccccc1)Cc1ccccc1", "MEASURE": "TGI", "REPORTED_MEASUREMENT": "> 100 µM"}
{"MOLECULE": "Cn1ncc2c(NCCc3ccccc3)nc(Cl)nc21", "MEASURE": "TGI", "REPORTED_MEASUREMENT": "> 100 µM"}
{"MOLECULE": "COC(=O)C1=NN2c3ccccc3CN([C@@H](C)c3ccccc3)C(=O)[C@@H]2C1", "MEASURE": "TGI", "REPORTED_MEASUREMENT": "> 100 µM"}
{"MOLECULE": "COC(=O)[C@]1(c2cc3ccccc3[nH]2)CC2CN(CC(=O)N(C)OC)C1C1OC(C)(C)OC21 (some centres undefined)", "MEASURE": "TGI", "REPORTED_MEASUREMENT": "> 100 µM"}
{"MOLECULE": "Nc1nc(Cl)cc(Nc2ccc3c(c2)CCC3)n1", "MEASURE": "TGI", "REPORTED_MEASUREMENT": "> 100 µM"}
{"MOLECULE": "NC(C(=O)O)C(N)C(=O)O (centres undefined)", "MEASURE": "TGI", "REPORTED_MEASUREMENT": "> 100 µM"}
{"MOLECULE": "CC(=O)CN=C(C)NNc1ccc([N+](=O)[O-])cc1[N+](=O)[O-]", "MEASURE": "TGI", "REPORTED_MEASUREMENT": "> 100 µM"}
{"MOLECULE": "O=C1/C(=C\\c2ccccc2)c2ccccc2N1Cc1ccccc1", "MEASURE": "TGI", "REPORTED_MEASUREMENT": "17 µM"}
{"MOLECULE": "CC1=COC2=C(C)C(=O)C(=O)c3c(C)ccc1c32", "MEASURE": "TGI", "REPORTED_MEASUREMENT": "20.3 µM"}
{"MOLECULE": "CC(O[Si](C)(C)C(C)(C)C)[C@H](NC(=O)OCC(Cl)(Cl)Cl)C(=O)O (some centres undefined)", "MEASURE": "TGI", "REPORTED_MEASUREMENT": "> 100 µM"}
{"MOLECULE": "COc1cc(Cn2c3c(c4cc(O)ccc42)C(=O)c2ccccc2C3=O)cc(OC)c1", "MEASURE": "TGI", "REPORTED_MEASUREMENT": "60.6 µM"}
{"MOLECULE": "CC(=O)OCCn1c(Cc2ccc([N+](=O)[O-])cc2)nn(C(C)=O)c1=O", "MEASURE": "TGI", "REPORTED_MEASUREMENT": "> 100 µM"}
